# test: Figure 6
Where a SMILES comes first, the peptide text is derived from it. Bridges are numbered along the chain shown (N, C = ends). [ ]: non-standard residue; d: D form. S5 = C=CCCC[C@](C)(N)C(=O)O; Nle = CCCC[C@H](N)C(=O)O; Aib = CC(C)(N)C(=O)O
endpoint name: Vss (L/kg)
Write the value in L/kg as a bare number.

### Prompt Indicate its recorded Vss; the compound in question is CCCC[C@H](NC(C)=O)C(=O)N[C@@H](CC(=O)O)C(=O)N[C@H](C(=O)N[C@@H](CC(N)=O)C(=O)NC(C)(C)C(=O)N[C@H](C(=O)N[C@@H](CC(C)C)C(=O)N[C@@]1(C)CCCC=CCCC[C@@](C)(C(=O)N[C@@H](C)C(=O)N[C@@H](C)C(=O)N[C@@H](CCC(N)=O)C(N)=O)NC(=O)[C@H](CCCCN)NC(=O)[C@H](CC(C)C)NC(=O)[C@H](Cc2ccccc2)NC1=O)[C@@H](C)O)C(C)C [SP-9, Ac-NleDVNAibTL$FLK$AAQ-NH2] (Ac-[Nle]DVN[Aib]TL[S5]FLK[S5]AAQ-NH2; staple 8-12)
### Response 0.363

###

# test: Figure 6
Where a SMILES comes first, the peptide text is derived from it. Bridges are numbered along the chain shown (N, C = ends). [ ]: non-standard residue; d: D form. S5 = C=CCCC[C@](C)(N)C(=O)O; Nle = CCCC[C@H](N)C(=O)O; Aib = CC(C)(N)C(=O)O
endpoint name: Vss
In your response, put the unit directly after the numeric value.

### Prompt Indicate its recorded Vss; the compound in question is CCCC[C@H](NC(C)=O)C(=O)N[C@@H](CC(=O)O)C(=O)N[C@H](C(=O)N[C@@H](CC(N)=O)C(=O)NC(C)(C)C(=O)N[C@H](C(=O)N[C@@H](CC(C)C)C(=O)N[C@@H](CC(C)C)C(=O)N[C@@H](Cc1ccccc1)C(=O)N[C@@]1(C)CCCC=CCCC[C@@](C)(C(=O)N[C@@H](CCCNC(=N)N)C(N)=O)NC(=O)[C@H](C)NC(=O)[C@H](C(C)C)NC(=O)[C@H](CCCCN)NC1=O)[C@@H](C)O)C(C)C [SP-6, Ac-NleDVNAibTLLF$KVA$R-NH2] (Ac-[Nle]DVN[Aib]TLLF[S5]KVA[S5]R-NH2; staple 10-14)
### Response 0.348 L/kg

###

# test: Figure 6
Where a SMILES comes first, the peptide text is derived from it. Bridges are numbered along the chain shown (N, C = ends). [ ]: non-standard residue; d: D form. S5 = C=CCCC[C@](C)(N)C(=O)O; Nle = CCCC[C@H](N)C(=O)O; Aib = CC(C)(N)C(=O)O
The following compounds are shown together with reported MRT values.
Write the value in min as a bare number.

### Prompt Indicate its recorded MRT; the compound in question is CCCC[C@H](NC(C)=O)C(=O)N[C@@H](CC(=O)O)C(=O)N[C@H](C(=O)N[C@@H](CC(N)=O)C(=O)NC(C)(C)C(=O)N[C@H](C(=O)N[C@@H](CC(C)C)C(=O)N[C@@H](CC(C)C)C(=O)N[C@@H](Cc1ccccc1)C(=O)N[C@@H](CC(C)C)C(=O)N[C@@H](CCCCN)C(=O)N[C@H](C(=O)NC(C)(C)C(=O)N[C@@H](C)C(=O)N[C@@H](CCC(N)=O)C(N)=O)C(C)C)[C@@H](C)O)C(C)C [SP-2, Ac-NleDVNAibTLLFLKVAibAQ-NH2] (Ac-[Nle]DVN[Aib]TLLFLKV[Aib]AQ-NH2)
### Response 24.6

### Prompt Indicate its recorded MRT; the compound in question is CCCC[C@H](NC(C)=O)C(=O)N[C@@H](CC(=O)O)C(=O)N[C@H](C(=O)N[C@@H](CC(N)=O)C(=O)NC(C)(C)C(=O)N[C@H](C(=O)N[C@@H](CC(C)C)C(=O)N[C@@H](CC(C)C)C(=O)N[C@@H](Cc1ccccc1)C(=O)N[C@@]1(C)CCCC=CCCC[C@@](C)(C(=O)N[C@@H](CCCNC(=N)N)C(N)=O)NC(=O)[C@H](C)NC(=O)[C@H](C(C)C)NC(=O)[C@H](CCCCN)NC1=O)[C@@H](C)O)C(C)C [SP-6, Ac-NleDVNAibTLLF$KVA$R-NH2] (Ac-[Nle]DVN[Aib]TLLF[S5]KVA[S5]R-NH2; staple 10-14)
### Response 75
